Target: Zif268 finger 2 variant KASN finger 2 alpha-helix variant KASN (full helix only in FIG. 1D) (Mus musculus)
Experimental context: [none]; apparent Kd interpolated from microarray signal 0.612
Reported metric: Kd

>>> df
                            sequence_string  reported_metric  measurement
0  TATATAGCGGGGGCGTATATATCAAGTCAATCGGTCC (double strand) [Zif268 site GGG]               Kd      1700 nM

====

Target: Zif268 finger 2 variant RGPD finger 2 alpha-helix variant RGPD (full helix only in FIG. 1D) (Mus musculus)
Protocol summary: ELONA
Experimental context: [none]; apparent Kd, phage ELISA, PBS/Zn, RT
pKd: −log10 of the molar value.
Reported metric: pKd

>>> print(df.to_string())
                            sequence_string  reported_metric  measurement
0  TATATAGCGGCGGCGTATATATCAAGTCAATCGGTCC (double strand) [Zif268 site GCG]              pKd         7.77
1  TATATAGCGCCGGCGTATATATCAAGTCAATCGGTCC (double strand) [Zif268 site CCG]              pKd         6.60
2  TATATAGCGGCCGCGTATATATCAAGTCAATCGGTCC (double strand) [Zif268 site GCC]              pKd         6.22

====

Target: Zif268 finger 2 variant KASN finger 2 alpha-helix variant KASN (full helix only in FIG. 1D) (Mus musculus)
Experimental context: [none]; apparent Kd interpolated from microarray signal 0.949
pKd: −log10 of the molar value.
Reported metric: pKd

In [3]: df
Out[3]:
                            sequence_string  reported_metric  measurement
0  TATATAGCGACTGCGTATATATCAAGTCAATCGGTCC (double strand) [Zif268 site ACT]              pKd         6.59

====

Target: Zif268 finger 2 variant LRHN finger 2 alpha-helix variant LRHN (full helix only in FIG. 1D) (Mus musculus) (UniProt P08046)
Experimental context: [none]; apparent Kd interpolated from microarray signal 0.342
Reported metric: Kd (nM)

                            sequence_string  measurement
0  TATATAGCGACTGCGTATATATCAAGTCAATCGGTCC (double strand) [Zif268 site ACT]          160

====

Target: Zif268 finger 2 variant REDV finger 2 alpha-helix variant REDV (full helix only in FIG. 1D) (Mus musculus) (UniProt P08046)
Experimental context: [none]; apparent Kd interpolated from microarray signal 0.069
pKd: −log10 of the molar value.
Reported metric: pKd

In [3]: df
Out[3]:
                            sequence_string  measurement
0  TATATAGCGATGGCGTATATATCAAGTCAATCGGTCC (double strand) [Zif268 site ATG]         5.80

====

Target: Zif268 finger 2 variant LRHN finger 2 alpha-helix variant LRHN (full helix only in FIG. 1D) (Mus musculus)
Experimental context: [none]; apparent Kd interpolated from microarray signal 0.449
Reported metric: Kd (nM)

>>> print(df.to_string())
                            sequence_string  reported_metric  unit_spec  measurement
0  TATATAGCGAGTGCGTATATATCAAGTCAATCGGTCC (double strand) [Zif268 site AGT]               Kd         nM           93

Every entry's value here was drawn from patent US20040203002.
